Target: Kv1.3 (Homo sapiens)
Construct: expressed in transfected cells
Sequence (P22001 whole entry): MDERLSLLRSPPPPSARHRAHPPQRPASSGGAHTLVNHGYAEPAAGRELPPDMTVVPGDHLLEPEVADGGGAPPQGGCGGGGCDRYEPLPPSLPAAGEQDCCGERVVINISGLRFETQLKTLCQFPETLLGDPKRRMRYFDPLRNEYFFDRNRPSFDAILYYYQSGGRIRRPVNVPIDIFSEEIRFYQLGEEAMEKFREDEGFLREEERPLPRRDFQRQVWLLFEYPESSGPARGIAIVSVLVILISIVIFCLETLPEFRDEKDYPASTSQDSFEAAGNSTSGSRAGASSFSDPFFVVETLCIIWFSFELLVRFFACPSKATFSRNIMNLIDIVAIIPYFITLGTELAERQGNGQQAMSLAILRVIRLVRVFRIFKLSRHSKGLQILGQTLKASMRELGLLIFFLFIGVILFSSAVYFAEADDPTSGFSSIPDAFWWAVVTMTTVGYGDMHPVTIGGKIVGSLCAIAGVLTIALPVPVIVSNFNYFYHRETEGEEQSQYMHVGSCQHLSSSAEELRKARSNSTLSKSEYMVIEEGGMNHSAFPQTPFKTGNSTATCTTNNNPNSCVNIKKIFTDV
Assay: Patch clamp assay (QPatch), Kv1.3
Assay type: cell-based
Settings: CHO cells stably expressing human Kv1.3, read-out: Potency IC50, Kv1.3
Let's look at some substances and their measured pIC50.
In textbook form, pIC50 equals minus log to base ten of the concentration in mol/L.

Example substances with recorded pIC50:
{"columns": ["substance", "pIC50"],
 "data": [
  ["H-H[Nle]D[Nle]RC(1)SASVEC(2)KQKC(3)LKAIGSIFGKC(1)[Nle]NKKC(2)KC(3)YPR-NH2 [Peptide 65]", 9.60],
  ["H-NMDMRC(1)SASVEC(2)KQKC(3)LKRIGSIFGKC(1)MNKKC(2)KC(3)YPR-NH2 [Peptide 57]", 9.52]
]}

# get_value(readout='pIC50', item= H-NMDMRC(1)SISVEC(2)KQKC(3)LKAIGSIFGKC(1)MNKKC(2)KC(3)YPR-NH2 [Peptide 27] ) 9.59

Follow-up item: H-NMDMRC(1)SASREC(2)KQKC(3)LKAIGSIFGKC(1)MNKKC(2)KC(3)YPR-NH2 [Peptide 28] 9.92

Follow-up item: H-NMDMRC(1)KASVEC(2)KQKC(3)LKAIGSIFGKC(1)MNKKC(2)KC(3)YPR-NH2 [Peptide 26] 10.05

* * *

Molecular target: Kv1.2 (Homo sapiens, UniProt P16389)
Construct: expressed in transfected cells
Sequence (P16389 whole entry): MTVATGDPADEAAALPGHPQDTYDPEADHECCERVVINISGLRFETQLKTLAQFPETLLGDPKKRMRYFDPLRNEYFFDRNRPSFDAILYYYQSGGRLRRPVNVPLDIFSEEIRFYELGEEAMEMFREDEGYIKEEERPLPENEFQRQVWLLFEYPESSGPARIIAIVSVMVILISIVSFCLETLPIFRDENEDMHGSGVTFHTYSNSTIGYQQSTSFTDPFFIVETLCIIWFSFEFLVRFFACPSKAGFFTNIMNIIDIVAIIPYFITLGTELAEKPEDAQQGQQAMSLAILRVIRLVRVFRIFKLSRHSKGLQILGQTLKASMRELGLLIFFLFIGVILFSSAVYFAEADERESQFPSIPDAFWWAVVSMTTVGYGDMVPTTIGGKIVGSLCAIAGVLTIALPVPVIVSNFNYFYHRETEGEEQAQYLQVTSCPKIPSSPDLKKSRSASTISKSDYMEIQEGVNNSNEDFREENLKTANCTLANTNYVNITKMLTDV
Experiment: Patch clamp assay (QPatch), Kv1.2
Assay type: cell-based
Settings: QPatch; CHO cells stably expressing human Kv1.2; read-out: Potency IC50, Kv1.2
assay-metric: pIC50
In textbook form, pIC50 equals minus log to base ten of the concentration in mol/L.

{"columns": ["substance", "pIC50"],
 "data": [
  ["H-QMDMRC(1)SASVEC(2)KQKC(3)LKAIGRGFGKC(1)MNKKC(2)KC(3)YPR-OH [Peptide 2]", 7.01],
  ["H-NMDMRC(1)SASVEC(2)KQKC(3)LKAIRSIFGKC(1)MNKKC(2)KC(3)YPR-NH2 [Peptide 22]", 7.24],
  ["H-P[Nle]D[Nle]RC(1)SASVEC(2)KQKC(3)LKAIGSIFGKC(1)[Nle]NKKC(2)KC(3)YPR-NH2 [Peptide 42]", 6.03],
  ["H-N[Nle]D[Nle]RC(1)RASVEC(2)KQKC(3)LKAIGSIFGKC(1)[Nle]NKKC(2)KC(3)YPR-NH2 [Peptide 43]", 6.96],
  ["H-NMEMRC(1)SASVEC(2)KQKC(3)LKAIGSIFGKC(1)MNKKC(2)KC(3)YPR-OH [Peptide 13]", 6.64]
]}

# get_value(readout='pIC50', item= Ac-C(1)SASVEC(2)KQKC(3)LKAIGSIFGKC(1)[Nle]NKKC(2)KC(3)YPR-NH2 [Peptide 109] ) 6.42

Follow-up item: H-N[Nle]D[Nle]RC(1)SASVEC(2)KQKC(3)LKAIGSIFGKC(1)[Nle]NKKC(2)KC(3)YPR-NH2 [Peptide 41] 6.95

* * *

Target: Kv1.2 (Homo sapiens)
Construct: expressed in transfected cells
Assay: Patch clamp assay (QPatch), Kv1.2
Type: cell-based
Details: QPatch; CHO cells stably expressing human Kv1.2; read-out: Potency IC50, Kv1.2
Let's look at some substances and their measured pIC50.
In textbook form, pIC50 equals minus log to base ten of the concentration in mol/L.

Example substances with recorded pIC50:
{"columns": ["substance", "study-target", "observed-result"],
 "data": [
  ["H-NMDMRC(1)SASVEC(2)KQKC(3)LKAIGSIFGKC(1)MNKKC(2)KC(3)YPRRRTA-NH2 [Peptide 24]", "Kv1.2 (Homo sapiens)", 7.55],
  ["H-N[Nle]D[Nle]RC(1)SHSVEC(2)KQKC(3)LKAIGSIFGKC(1)[Nle]NKKC(2)KC(3)YPR-NH2 [Peptide 48]", "Kv1.2 (Homo sapiens)", 6.11],
  ["H-NMDMRC(1)SASVQC(2)KQKC(3)LKAIGSIFGKC(1)MNKKC(2)KC(3)YPR-NH2 [Peptide 29]", "Kv1.2 (Homo sapiens)", 7.80],
  ["H-NID[Nle]RC(1)SASVEC(2)KQKC(3)LKAIGSIFGKC(1)[Nle]NKKC(2)KC(3)YPR-OH [Peptide 98]", "Kv1.2 (Homo sapiens)", 5.69],
  ["H-AAAISCVGSPECPPKCRAQGCKNGKCMNRKCKCYYC-NH2 [Vm24, reference compound]", "Kv1.2 (Homo sapiens)", 8.33]
]}

# get_value(readout='pIC50', item= H-NMDMRC(1)SASVEC(2)KQKC(3)LYAIGSIFGKC(1)MNKKC(2)KC(3)YPR-NH2 [Peptide 54] ) 6.83

Follow-up item: H-NMDMRC(1)SASREC(2)KQKC(3)LKAIGSIFGKC(1)MNKKC(2)KC(3)YPR-NH2 [Peptide 28] 7.96

Follow-up item: H-S[Nle]D[Nle]RC(1)SASVEC(2)GQKC(3)LKAIGSIFGKC(1)MNKKC(2)KC(3)YPR-NH2 [Peptide 73] 6.43

Follow-up item: H-NMDMRC(1)SASVEC(2)KQKC(3)LKAIGSRFGKC(1)MNKKC(2)KC(3)YPR-NH2 [Peptide 36] 7.74

Follow-up item: H-NMDMRC(1)SASVEC(2)KQKC(3)LAIGSIFGKC(1)MNKKC(2)KC(3)YPR-NH2 [Peptide 55] 6.54

Follow-up item: H-NIDMRC(1)SASVEC(2)KQKC(3)LKAIGSIFGKC(1)MNKKC(2)KC(3)YPR-OH [Peptide 9] 6.42

Follow-up item: H-[phosphotyrosyl][8-Amino-3,6-dioxaoctanoyl]RSCIDTIPKSRCTAFQCKHSMKYRLSFCRKTCGTC-NH2 [ShK-186, reference compound] 7.37

Follow-up item: H-NMDMRC(1)SASVEC(2)KVKC(3)LKAIGSIFGKC(1)MNKKC(2)KC(3)YPR-NH2 [Peptide 18] 7.18

Follow-up item: H-NMDMRC(1)SASVEC(2)KQKC(3)LKAIGSIFGKC(1)MNKKC(2)HC(3)YPR-NH2 [Peptide 38] 6.47

Follow-up item: H-P[Nle]E[Nle]RC(1)[2,4-Diaminobutanoyl]ASVEC(2)KQKC(3)LAAIGSIFGKC(1)[Nle]NKKC(2)KC(3)YPR-OH [Peptide 84] 6.32

Follow-up item: H-P[Nle]D[Nle]RC(1)SASVEC(2)KQKC(3)LKAIGC(4)IFGKC(1)[Nle]NKKC(2)KC(3)YPC(4)-NH2 [Peptide 85] 6.20
